B1: library; a variant is named by its letters at N, in order (parent)
chain: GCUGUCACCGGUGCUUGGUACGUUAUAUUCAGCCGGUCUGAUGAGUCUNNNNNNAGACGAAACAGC

Variants of: B1
assay_text: FACS-Seq fitted mean relative fluorescence mCherry/BFP with ligand (log10 relative fluorescence); HEK293T overexpressing SLC46A1; ligand concentration (+) FACS-Seq: 6 mM; higher = higher reporter protein expression
measurement_setup: with (6R,S)-folinic acid; ligand present: yes
Record y whenever FACS-Seq fitted mean (log10) is at 0.4 or higher; record n when lower.

{"columns": ["mutant", "classification"],
 "data": [
  ["ACUGAA", "n"],
  ["AGGCAU", "y"],
  ["ACGCUU", "n"],
  ["CCUAAU", "n"],
  ["AAACCA", "n"],
  ["GAGGUA", "n"],
  ["CUAGGC", "n"],
  ["AUCUUA", "n"],
  ["UACGGA", "y"]
]}
